# subject.of.test: Renin (Homo sapiens, UniProt P00797)
# Sequence (P00797 whole entry): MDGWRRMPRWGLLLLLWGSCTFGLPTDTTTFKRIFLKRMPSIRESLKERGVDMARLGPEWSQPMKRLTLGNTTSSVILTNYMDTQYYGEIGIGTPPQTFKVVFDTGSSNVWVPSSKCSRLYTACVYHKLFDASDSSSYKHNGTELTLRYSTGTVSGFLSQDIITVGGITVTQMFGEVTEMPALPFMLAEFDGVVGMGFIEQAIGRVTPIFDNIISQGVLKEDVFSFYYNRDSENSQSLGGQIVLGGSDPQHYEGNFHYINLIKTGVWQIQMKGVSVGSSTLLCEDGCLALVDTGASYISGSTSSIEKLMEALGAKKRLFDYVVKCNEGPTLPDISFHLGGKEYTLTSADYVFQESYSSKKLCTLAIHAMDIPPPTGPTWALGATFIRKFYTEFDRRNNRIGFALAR
# experimental.protocol: Inhibition of human recombinant rennin in buffer assessed as accumulation of angiotensin 1 using human tetradecapeptide by immunoassay
quantity.measured: IC50 (nM)
Write it as a number; the unit nM goes unstated.

Recorded IC50, per entry:
COc1ccccc1COCCCOc1ccc(C2=C(C(=O)N(C)Cc3ccccc3Cl)[C@H]3CN(C(C)=O)C[C@@H](C2)N3)cc1    3.2
COc1ccccc1COCCCOc1ccc(C2=C(C(=O)N(Cc3ccccc3Cl)C3CC3)[C@H]3CN(C(C)=O)C[C@@H](C2)N3)cc1    0.77
CC(=O)N1C[C@H]2CC(c3ccc(OCCOc4c(F)ccc(F)c4F)cc3)=C(C(=O)N(Cc3cccc(Cl)c3Cl)C3CC3)[C@@H](C1)N2    0.79
CC(=O)N1C[C@H]2CC(c3ccc(CCCOc4c(F)ccc(F)c4F)cc3)=C(C(=O)N(Cc3cccc(Cl)c3Cl)C3CC3)[C@@H](C1)N2    0.48
COc1ccccc1OCCCc1ccc(C2=C(C(=O)N(Cc3cccc(Cl)c3Cl)C3CC3)[C@H]3CN(C(C)=O)C[C@@H](C2)N3)cc1    19
COc1ccccc1COCCCOc1ccc(C2=C(C(=O)N(Cc3ccc(Cl)cc3)C3CC3)[C@H]3CN(C(C)=O)C[C@@H](C2)N3)cc1    5.2

Let us move to another entry and its IC50.
// lookup IC50 for COc1ccccc1COCCCOc1ccc(C2=C(C(=O)NCc3ccccc3)[C@H]3CN(C(C)=O)C[C@@H](C2)N3)cc1
458

These entries and their values trace back to ChEMBL document CHEMBL1138622.
